# Species on record: Mus musculus
# Assay: Inhibition of NMDA receptor in mouse synaptoneurosomes assessed as reduction of NMDA/glycine-induced calcium influx at 100 uM after 30 mins using Fura-2 AM by fluorescence assay relative to control
Measured parameter: inhibition

>>> print(df.to_string())
                                    molecule  result
 0           Nc1ccccc1CNC12CC3CC(CC(C3)C1)C2   31.3%
 1         Nc1ccc(CNC23CC4CC(CC(C4)C2)C3)cc1   50.4%
 2         c1ccc(CCNC23CC4CC(CC(C4)C2)C3)cc1   89.5%
 3          c1ccc(CNC23CC4CC(CC(C4)C2)C3)cc1   66.7%
 4        COc1ccc(CNC23CC4CC(CC(C4)C2)C3)cc1   79.2%
 5                     NC12CC3CC(CC(C3)C1)C2   84.6%
 6  c1ccc(CNC23OC4C5C6CC(C7C6C4C72)C53)cc1 (stereo not given)   22.2%
 7  O=[N+]([O-])c1cccc(CNC23CC4CC(CC(C4)C2)C3)c1   36.6%
 8               CC12CC3CC(C)(C1)CC(N)(C3)C2   92.5%
 9        C[C@]12N[C@H](Cc3ccccc31)c1ccccc12    100%
10  O=[N+]([O-])c1ccccc1CNC12CC3CC(CC(C3)C1)C2   60.6%
11         Nc1cccc(CNC23CC4CC(CC(C4)C2)C3)c1   48.3%
12  O=[N+]([O-])c1ccc(CNC23CC4CC(CC(C4)C2)C3)cc1   74.8%
13        COc1cccc(CNC23CC4CC(CC(C4)C2)C3)c1   70.2%

---

Measured inhibition values are reported for all entries that follow.
# Species on record: Mus musculus
# Assay: Inhibition of voltage-gated calcium channel in mouse synaptoneurosomes assessed as reduction of KCl-induced calcium influx at 100 uM after 30 mins using Fura-2 AM by fluorescence assay relative to control
Measured parameter: inhibition

>>> print(df.to_string())
                                    compound  result
 0        COc1ccc(CNC23CC4CC(CC(C4)C2)C3)cc1   71.2%
 1  O=[N+]([O-])c1ccc(CNC23CC4CC(CC(C4)C2)C3)cc1   85.7%
 2  COCCOC(=O)C1=C(C)NC(C)=C(C(=O)OC(C)C)C1c1cccc([N+](=O)[O-])c1 (stereo not given)    100%
 3         c1ccc(CCNC23CC4CC(CC(C4)C2)C3)cc1     42%
 4         Nc1cccc(CNC23CC4CC(CC(C4)C2)C3)c1     30%
 5  c1ccc(CNC23OC4C5C6CC(C7C6C4C72)C53)cc1 (stereo not given)   38.4%
 6                     NC12CC3CC(CC(C3)C1)C2   2.76%
 7  O=[N+]([O-])c1ccccc1CNC12CC3CC(CC(C3)C1)C2   49.2%
 8        COc1cccc(CNC23CC4CC(CC(C4)C2)C3)c1   44.7%
 9         Nc1ccc(CNC23CC4CC(CC(C4)C2)C3)cc1   49.5%
10  O=[N+]([O-])c1cccc(CNC23CC4CC(CC(C4)C2)C3)c1   14.3%
11               CC12CC3CC(C)(C1)CC(N)(C3)C2    5.2%
12          c1ccc(CNC23CC4CC(CC(C4)C2)C3)cc1   39.6%
13           Nc1ccccc1CNC12CC3CC(CC(C3)C1)C2   37.1%

Source: ChEMBL document CHEMBL3621087
